- subject_of_test: T1, interleukin 18 binding protein (IL-18BP) (UniProt O95998 31-194)
- T1 sequence (looked up): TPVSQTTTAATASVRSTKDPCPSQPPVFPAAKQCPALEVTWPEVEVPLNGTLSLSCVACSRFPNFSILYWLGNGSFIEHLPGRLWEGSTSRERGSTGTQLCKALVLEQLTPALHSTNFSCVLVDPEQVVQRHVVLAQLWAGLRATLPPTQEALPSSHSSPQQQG
- experiment_summary: cell-based or functional assay
Kindly supply the reported HEK-blue EC50 (pM) + 300 nM BP values for the records listed here.
Numbers only, in pM.

Take each entry in turn and give its HEK-blue EC50 (pM) + 300 nM BP.
1. IL-18 variant K53S, S55G (ligand) YFGKLESKLSVIRNLNDQVLFIDQGNRPLFEDMTDSDMRDNAPRTIFIISMYSDGQPRGMAVTISVKSEKISTLSSENKIISFKEMNPPDNIKDTKSDIIFFQRSVPGHDNKMQFESSSYEGYFLASEKERDLFKLILKKEDELGDRSIMFTVQNED
2. IL-18 variant K53S, S55K (ligand) YFGKLESKLSVIRNLNDQVLFIDQGNRPLFEDMTDSDMRDNAPRTIFIISMYSDKQPRGMAVTISVKSEKISTLSSENKIISFKEMNPPDNIKDTKSDIIFFQRSVPGHDNKMQFESSSYEGYFLASEKERDLFKLILKKEDELGDRSIMFTVQNED

Solution:
1: 103; 2: 18.1
